- Tested on: PC-3 prostate
- METHOD SUMMARY: NCI-60 one-dose screen, 48 h (100 = growth as untreated, 0 = no growth, -100 = all killed)
- MEASUREMENT SETUP: 10 µM
About 83,000 compounds went through this panel and 20% of them were active in at least one assay; those are over-represented in the sample as a whole.
Mark each entry Fulfilled if its growth sits below 90%, and Not fulfilled for all others.

See these solved cases before continuing.
CCOC(=O)c1ccc(NC(=S)P(=O)(c2ccccc2)c2ccccc2)cc1	Fulfilled
O=[N+]([O-])c1ccc(N=Nc2ccc(O)c3ccccc23)cc1	Fulfilled
N#Cc1ccc(OC(=O)Nc2ccc(Cl)c(Cl)c2)cc1	Fulfilled
CNC(=O)c1ccccc1CC1(O)c2ccccc2Oc2ccccc21	Fulfilled
Cc1ccc(CCCC(=O)O)c(C)c1	Not fulfilled

Item CCCOC(=O)C(O)c1ccccc1 (centres undefined) : growth beneath 90%, strictly? Not fulfilled

Field: below-cutoff. Rule: recorded growth strictly less than 90%. Subject: `NC(=O)N/N=C\c1ccco1` Not fulfilled

Lab log: compare recorded growth with 90%; is it strictly lower for `COC(=O)c1[nH]c(=O)c(C#N)c(C(=O)OC)c1C(=O)c1ccccc1` ? Not fulfilled

Is growth strictly under 90% for the entry `O=C(O)CCCCNC(=O)c1ccccc1` ? Not fulfilled

Threshold test, growth < 90%: O=S(=O)(O)CC(O)CN1CCN(CCO)CC1 (centres undefined) Fulfilled

growth under 90%? Item: `NCCCN` Not fulfilled

Here's an entry: `C[C@@H](c1ccccc1)[C@@H](C(=O)O)c1ccccc1` . Is its growth below 90%? Not fulfilled

---

- System: A549/ATCC NSCLC
- METHOD SUMMARY: NCI-60 one-dose screen, 48 h (100 = growth as untreated, 0 = no growth, -100 = all killed)
- MEASUREMENT SETUP: 10 µM
The panel holds about 83,000 compounds, 20% with a hit somewhere; the sample as a whole holds those more often.
Overview of reported growth across a group of compounds:
The reply should be a number in %, with the unit left off.

CC(=Nc1ccccc1)C1=C(O)C(Cc2cccc(F)c2)NC1=O (centres undefined)	14.3
O=[N+]([O-])c1ccccc1N=Nc1ccc(O)cc1O	106
CCOC(=O)C(=O)C=P(c1ccccc1)(c1ccccc1)c1ccccc1	100

# growth lookup, item `C[C@]12CC[C@@H]3c4ccc(OCC(=O)O)cc4CC[C@H]3[C@@H]1CCC2=O` 93.3

---

- Test system: SNB-75 CNS
- METHOD SUMMARY: NCI-60 one-dose screen, 48 h (100 = growth as untreated, 0 = no growth, -100 = all killed)
- MEASUREMENT SETUP: 10 µM
About 83,000 compounds went through this panel and 20% of them were active in at least one assay; those are over-represented in the sample as a whole.
Entries and their growth
Reply numerically in %, unit not repeated.

O=C(OCC(O)C1OC(c2ccccc2)OC(COC(=O)c2ccccc2)C1O)c1ccccc1 (stereo not drawn)	77.4
O=C1C[C@H](c2ccccc2)[C@H](c2ccccc2)C1	91.8

Please look at the following molecule next.
# growth lookup, item `CCOC(=O)C/C(C)=N\O` 118

---

# reported growth; entries follow
- Test system: COLO 205 colon
- METHOD SUMMARY: NCI-60 one-dose screen, 48 h (100 = growth as untreated, 0 = no growth, -100 = all killed)
- MEASUREMENT SETUP: 10 µM
About 83,000 compounds went through this panel and 20% of them were active in at least one assay; those are over-represented in the sample as a whole.
Supply the numeric figure in %, leaving out any unit text.

Form field: growth recorded for `CC(C)C(C#N)(C(C)C)C(C)C` with COLO 205 colon (enter value) 109

Recorded growth for `CN(C)c1ccc2oc(=O)c3ccccc3c2c1` with COLO 205 colon, please? 119

Report growth for `CO[C@H]1C[C@@H]2CC[C@@H](C)[C@@](O)(O2)C(=O)C(=O)N2CCCC[C@H]2C(=O)O[C@H]([C@H](C)C[C@@H]2CC[C@@H](O)[C@H](OC)C2)CC(=O)[C@H](C)C=C(C)[C@@H](O)[C@@H](OC)C(=O)[C@H](C)C[C@H](C)/C=C/C=C/C=C1C` tested on COLO 205 colon. 61.3

Can you look up growth on COLO 205 colon for `Nc1nc(OCc2ccccc2)c2[nH]cnc2n1` ? 114

Observed growth on COLO 205 colon for `CC(=O)c1c[nH]c2ccccc12` , please. 119

Data credit: PubChem BioAssay (NCI)
